Target: Peroxisome proliferator-activated receptor gamma (Homo sapiens) (UniProt P37231)
Sequence (whole entry): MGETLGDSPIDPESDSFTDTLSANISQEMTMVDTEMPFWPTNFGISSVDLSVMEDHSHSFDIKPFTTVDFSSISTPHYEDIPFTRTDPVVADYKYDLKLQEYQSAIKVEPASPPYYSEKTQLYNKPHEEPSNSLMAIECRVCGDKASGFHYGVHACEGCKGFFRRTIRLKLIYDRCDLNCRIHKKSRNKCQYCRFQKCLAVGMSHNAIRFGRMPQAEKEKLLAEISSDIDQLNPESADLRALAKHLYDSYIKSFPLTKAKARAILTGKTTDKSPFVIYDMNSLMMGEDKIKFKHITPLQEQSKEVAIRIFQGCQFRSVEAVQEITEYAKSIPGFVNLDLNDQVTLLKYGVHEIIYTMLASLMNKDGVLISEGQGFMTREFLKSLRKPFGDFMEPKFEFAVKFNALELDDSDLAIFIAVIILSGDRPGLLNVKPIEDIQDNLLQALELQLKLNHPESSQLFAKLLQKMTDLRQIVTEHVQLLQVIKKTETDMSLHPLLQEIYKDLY
Assay: Modulation of human PPARgamma-LBD expressed in african green monkey COS7 cells co-transfected with Gal4 assessed as activation of transactivation activity by luciferase assay relative to pioglitazone
Type: cell-based
Conditions: COS-7
Consider the cut-off 70%. If the recorded Emax is strictly smaller, the label is MET; if not, the label is NOT MET.

Here's what some known entries look like.
In [3]: df
Out[3]:
                                   compound                               test_system  category_label
0  CCCCC(Oc1cc(OCCc2ccccc2)cc(OCCc2ccccc2)c1)C(=O)O (configuration not stated)  Peroxisome proliferator-activated receptor gamma (Homo sapiens) (UniProt P37231)             MET
1  CCCCC(Cc1cc(OCCc2ccccc2)ccc1OCCc1ccccc1)C(=O)O (configuration not stated)  Peroxisome proliferator-activated receptor gamma (Homo sapiens) (UniProt P37231)         NOT MET
2  CCCC/C(=C\c1cc(OCCc2ccccc2)ccc1OCCc1ccccc1)C(=O)O  Peroxisome proliferator-activated receptor gamma (Homo sapiens) (UniProt P37231)             MET
3  CCCCC(Cc1ccc(OCCc2ccccc2)c(OCCC2CCCCC2)c1)C(=O)O (configuration not stated)  Peroxisome proliferator-activated receptor gamma (Homo sapiens) (UniProt P37231)         NOT MET
4  CCCCC(Sc1cc(OCCc2ccccc2)cc(OCCc2ccccc2)c1)C(=O)O (configuration not stated)  Peroxisome proliferator-activated receptor gamma (Homo sapiens) (UniProt P37231)         NOT MET
5  CCCCC(Cc1ccc(OCCc2ccccc2)c(OCCc2ccccc2)c1)C(=O)O (configuration not stated)  Peroxisome proliferator-activated receptor gamma (Homo sapiens) (UniProt P37231)         NOT MET

Inquiry: # TODO verify Emax < 70% strictly for this compound: CCCC/C(=C\c1cc(OCCc2ccc(C(F)(F)F)cc2)ccc1OCCc1ccc(C(F)(F)F)cc1)C(=O)O
Reply text: NOT MET

Inquiry: Please check: Emax for CCCCC(Cc1ccc(OCCC2CCCCC2)c(OCCc2ccccc2)c1)C(=O)O (configuration not stated) , strictly under 70% or not?
Reply text: MET

Inquiry: Consider the compound CCCC/C(=C\c1cc(OCCc2ccccc2)cc(OCCc2ccccc2)c1)C(=O)O . Is its Emax strictly less than 70%?
Reply text: NOT MET

Inquiry: Take the compound CCCCC(Cc1cccc(OCCc2ccccc2)c1OCCc1ccccc1)C(=O)O (configuration not stated) and say whether its Emax is less than 70%.
Reply text: NOT MET

----------
Each entry below carries its reported Activity.
Target: Prostaglandin G/H synthase 1 (Ovis aries) (UniProt P05979)
Sequence (whole entry): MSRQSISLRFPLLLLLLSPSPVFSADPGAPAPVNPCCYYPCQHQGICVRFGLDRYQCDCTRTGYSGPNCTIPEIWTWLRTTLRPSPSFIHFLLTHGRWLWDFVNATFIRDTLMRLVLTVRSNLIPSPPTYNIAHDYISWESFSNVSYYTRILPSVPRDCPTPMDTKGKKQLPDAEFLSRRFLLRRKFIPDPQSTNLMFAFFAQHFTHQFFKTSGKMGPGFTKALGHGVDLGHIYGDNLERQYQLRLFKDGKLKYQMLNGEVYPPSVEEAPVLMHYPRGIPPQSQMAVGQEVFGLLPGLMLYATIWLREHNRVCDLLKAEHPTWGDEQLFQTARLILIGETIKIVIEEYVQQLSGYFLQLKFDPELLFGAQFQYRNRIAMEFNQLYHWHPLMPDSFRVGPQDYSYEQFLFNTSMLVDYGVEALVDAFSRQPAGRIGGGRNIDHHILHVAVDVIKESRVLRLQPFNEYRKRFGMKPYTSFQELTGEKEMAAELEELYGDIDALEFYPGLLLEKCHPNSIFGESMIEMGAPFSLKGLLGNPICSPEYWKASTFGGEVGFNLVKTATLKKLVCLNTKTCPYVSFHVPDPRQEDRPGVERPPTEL
Test: Inhibition of ovine COX-1 assessed as residual activity by measuring formation of 12-HHT from arachidonic acid at 10 uM by HPLC analysis
Use % as the unit, but write only the number.

Some molecules with known Activity results, for comparison:
In [3]: df
Out[3]:
                                   molecule  observed_value
0  CCCC/C(=C\c1cc(OCCC2CCCCC2)ccc1OCCC1CCCCC1)C(=O)O            76.4
1  CCCC/C(=C\c1cc(OCCc2ccc(C(F)(F)F)cc2)ccc1OCCc1ccc(C(F)(F)F)cc1)C(=O)O              81
2  CCCCC(Cc1cc(OCCc2ccccc2)cc(OCCc2ccccc2)c1)C(=O)O (stereo unspecified)            78.7
3  CCCC/C(=C\c1cc(OCCc2ccccc2)cc(OCCc2ccccc2)c1)C(=O)O            81.4

Inquiry: What measured Activity goes with CCCCC(Cc1ccc(OCCc2ccccc2)c(OCCc2ccccc2)c1)C(=O)O (stereo unspecified) ?
Reply text: 95.8

Inquiry: # input molecule: CCCCC(Oc1cc(OCCc2ccccc2)cc(OCCc2ccccc2)c1)C(=O)O (stereo unspecified) ; wanted: its Activity
Reply text: 71.6

----------
system: CHO; test: Cytotoxicity against CHO cells expressing human APP and wild type human presenilin-1 assessed as reduction of cell viability up to 40 uM after 24 hrs by Alamar blue assay; type: cell-based, Cricetulus griseus; conditions: chinese hamster
Observation Type: Activity

Example results:
>>> df
                                   compound  test_system  observed_value
0  CCCC/C(=C\c1cc(OCc2ccc(C(F)(F)F)cc2)ccc1OCc1ccc(C(F)(F)F)cc1)C(=O)O          CHO       Non-toxic
1  CCCCC(Cc1ccc(OCCC2CCCCC2)c(OCCc2ccccc2)c1)C(=O)O (stereo not given)          CHO       Non-toxic
2  CCCCC(Oc1cc(OCCc2ccccc2)cc(OCCc2ccccc2)c1)C(=O)O (stereo not given)          CHO       Non-toxic
3  CCCCC(Cc1cc(OCCc2ccccc2)cc(OCCc2ccccc2)c1)C(=O)O (stereo not given)          CHO       Non-toxic
4  CCCC/C(=C\c1cc(OCCc2ccccc2)ccc1OCCc1ccccc1)C(=O)O          CHO       Non-toxic
5  CCCCC(Sc1cc(OCCc2ccccc2)cc(OCCc2ccccc2)c1)C(=O)O (stereo not given)          CHO       Non-toxic
6  CCCC/C(=C\c1cc(OCCc2ccc(C(F)(F)F)cc2)ccc1OCCc1ccc(C(F)(F)F)cc1)C(=O)O          CHO       Non-toxic
7  CCCCC(Cc1ccc(OCCc2ccccc2)c(OCCC2CCCCC2)c1)C(=O)O (stereo not given)          CHO       Non-toxic

Inquiry: What value of measured Activity is listed for CCCC/C(=C\c1cc(OCCC2CCCCC2)ccc1OCCC1CCCCC1)C(=O)O ?
Reply text: Non-toxic

Inquiry: I'd like to know its Activity. The compound in question is CCCCC(Cc1ccc(OCCC2CCCCC2)c(OCCC2CCCCC2)c1)C(=O)O (stereo not given)
Reply text: Non-toxic

----------
target: Peroxisome proliferator-activated receptor gamma (Homo sapiens); assay: Modulation of human PPARgamma-LBD expressed in african green monkey COS7 cells co-transfected with Gal4 assessed as activation of transactivation activity at 10 uM by luciferase assay; type: cell-based; conditions: COS-7
# Lookup of reported Activity keyed by entry

Some entries whose results are on file:
In [3]: df
Out[3]:
                                 smiles_str                               test_system  observed_value
0  CCCC/C(=C\c1cc(OCCC2CCCCC2)ccc1OCc1ccc(C(F)(F)F)cc1)C(=O)O  Peroxisome proliferator-activated receptor gamma (Homo sapiens)             27%
1  CCCC/C(=C\c1cc(OCc2ccc(C(F)(F)F)cc2)ccc1OCc1ccc(C(F)(F)F)cc1)C(=O)O  Peroxisome proliferator-activated receptor gamma (Homo sapiens)             28%

Inquiry: Which measured Activity belongs to CCCC/C(=C\c1cc(OCCC2CCCCC2)ccc1OCCC1CCCCC1)C(=O)O , tested on Peroxisome proliferator-activated receptor gamma (Homo sapiens)?
Reply text: 75%
